SYSTEM: human ether-à-go-go-related gene (hERG) potassium channel (human, UniProt Q12809);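 further: peak tail current of the secondary pulse compared with the same well before compound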
Sequence (Q12809 whole entry, looked up): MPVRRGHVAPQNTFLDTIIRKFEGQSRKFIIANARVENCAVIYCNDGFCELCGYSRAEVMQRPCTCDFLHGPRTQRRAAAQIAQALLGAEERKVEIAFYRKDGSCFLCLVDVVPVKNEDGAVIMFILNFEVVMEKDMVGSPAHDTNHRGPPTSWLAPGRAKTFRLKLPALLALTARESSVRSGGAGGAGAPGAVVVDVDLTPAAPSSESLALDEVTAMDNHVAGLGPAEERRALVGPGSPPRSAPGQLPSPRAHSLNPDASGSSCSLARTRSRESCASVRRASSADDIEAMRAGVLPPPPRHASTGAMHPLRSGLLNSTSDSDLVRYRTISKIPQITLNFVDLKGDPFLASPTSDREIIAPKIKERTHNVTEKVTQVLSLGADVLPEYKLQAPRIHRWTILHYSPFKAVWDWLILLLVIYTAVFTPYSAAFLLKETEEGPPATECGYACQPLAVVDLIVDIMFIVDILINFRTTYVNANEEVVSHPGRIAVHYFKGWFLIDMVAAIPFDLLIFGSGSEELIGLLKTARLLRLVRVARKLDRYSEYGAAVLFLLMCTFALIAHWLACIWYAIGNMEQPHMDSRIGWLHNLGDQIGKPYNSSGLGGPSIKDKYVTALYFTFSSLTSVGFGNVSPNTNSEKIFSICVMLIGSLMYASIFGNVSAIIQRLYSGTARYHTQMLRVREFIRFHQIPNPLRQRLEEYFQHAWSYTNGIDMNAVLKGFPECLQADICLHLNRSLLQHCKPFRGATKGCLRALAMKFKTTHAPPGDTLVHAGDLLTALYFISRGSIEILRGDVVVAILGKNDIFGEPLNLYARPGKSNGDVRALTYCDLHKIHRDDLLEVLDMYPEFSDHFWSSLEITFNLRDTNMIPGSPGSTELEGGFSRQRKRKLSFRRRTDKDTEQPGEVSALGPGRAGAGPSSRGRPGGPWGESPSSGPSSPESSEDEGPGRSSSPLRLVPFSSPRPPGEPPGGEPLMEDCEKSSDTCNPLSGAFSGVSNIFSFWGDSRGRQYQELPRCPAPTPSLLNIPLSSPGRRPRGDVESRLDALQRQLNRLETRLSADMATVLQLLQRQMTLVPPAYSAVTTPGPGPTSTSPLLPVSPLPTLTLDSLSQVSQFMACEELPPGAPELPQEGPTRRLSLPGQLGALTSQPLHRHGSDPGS
METHOD: primary screen, population patch clamp on CHO cells stably expressing hERG; higher = less effect of the substance
Out of some 310,000 compounds screened, about 14,000 (4.5%) showed an effect of 50% or more. Effects have a minus sign here. For the sample, strong results were picked, then their nearest neighbours and some compounds at random.
ENDPOINT_NAME: hERG current change (%, negative = inhibition) at 10uM (%)

MOLECULE	NUMERIC_VALUE
C=CCN1CCN(C(=O)CCCc2ccccc2)CC1	26.1
O=C(CCc1ccccc1)N1CCN(c2ccc([N+](=O)[O-])cc2)CC1	-73.1
Cn1c(-c2cccc([N+](=O)[O-])c2)cnc1NCc1cccc(F)c1.O=C(O)C(=O)O	-54.1
COCCNC(=O)c1cccc(OC2CCN(Cc3ccc(C(C)C)cc3)CC2)c1	-70.7
Cn1c(-c2ccc(Br)cc2)cnc1NCc1cccnc1	-41.3
CC1CCCN(C(=O)CCc2ccccc2)C1 (centres unmarked)	-5.7
O=C(N/N=C/c1cc([N+](=O)[O-])ccc1O)C(O)(c1ccccc1)c1ccccc1	4.13
O=C(CCCC1=NS(=O)(=O)c2ccccc2N1)N1CCN(c2ccc([N+](=O)[O-])cc2)CC1	-1.34
COc1ccc(C2SCC(C(=O)NCc3ccc(F)cc3)N2C(C)=O)cc1 (centres unmarked)	-20.2
CCOc1ccc(CNc2ncc(-c3ccccc3)n2C)cc1	-38.9
Cn1c(-c2cccc([N+](=O)[O-])c2)cnc1NCc1ccc(C#N)cc1.O=C(O)C(=O)O	-75
CC(=O)c1ccc(N2CCN(C(=O)/C=C/c3ccc(S(=O)(=O)N4CCOCC4)cc3)CC2)cc1	-30.3
COc1ccc([N+](=O)[O-])cc1NCc1cccc([N+](=O)[O-])c1	-62.6
Cc1ccccc1C(=O)NC(=S)Nc1ccc2[nH]c(=O)[nH]c2c1	23.1
COc1ccc(N2CCN(C(=O)CCc3ccccc3)CC2)cc1	-9.27
Cc1ccc(C)c(N2CCN(C(=O)Cn3c(=O)[nH]c4ccsc4c3=O)CC2)c1	-4.12
O=C(CCCc1ccccc1)N1CCN(c2ccc([N+](=O)[O-])cc2)CC1	-64.7
COCCNC(=O)c1cccc(OC2CCN(Cc3ccccc3OC(F)F)CC2)c1	2.5
CC1CN(C(=O)CCc2ccccc2)C(C)CN1C(=O)CCc1ccccc1 (centres unmarked)	-60.4
Cn1c(-c2cccc(Br)c2)cnc1NCc1cccnc1	-59.6

====

SYSTEM: human ether-à-go-go-related gene (hERG) potassium channel (human, UniProt Q12809);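 further: peak tail current of the secondary pulse compared with the same well before compound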
METHOD: primary screen, population patch clamp on CHO cells stably expressing hERG; higher = less effect of the substance
About 14,000 (4.5%) of roughly 310,000 compounds showed an effect of 50% or more. The effect is printed as a negative number. The entries come from a sample that favours strong results as a whole.
Listing of recorded hERG current change (%, negative = inhibition) at 10uM by entry.
ENDPOINT_NAME: hERG current change (%, negative = inhibition) at 10uM (%)

COMPOUND	SYSTEM	NUMERIC_VALUE
Cc1ccnc(SC2CC(=O)N(c3ccc([N+](=O)[O-])cc3)C2=O)n1 (stereo not shown)	human ether-à-go-go-related gene (hERG) potassium channel (human, UniProt Q12809)	-26.8
CCOc1cc(CNCCCN2CCOCC2)ccc1OCC(=O)Nc1cccc2ccccc12.Cl	human ether-à-go-go-related gene (hERG) potassium channel (human, UniProt Q12809)	-7.77
COc1ccccc1/C=N/NC(=O)CC(=O)NCCc1ccccc1	human ether-à-go-go-related gene (hERG) potassium channel (human, UniProt Q12809)	12.1
CCn1nc(C(=O)N2CCN(Cc3nc4ccccc4s3)CC2)c2ccccc2c1=O	human ether-à-go-go-related gene (hERG) potassium channel (human, UniProt Q12809)	-68.9
Cc1ccccc1NC(=O)CN1C(=O)S/C(=C\c2ccc(-c3cccc(C(=O)O)c3C)o2)C1=O	human ether-à-go-go-related gene (hERG) potassium channel (human, UniProt Q12809)	23.7
CCOc1ccc(C(=O)OCC(=O)NC2CCCC2)cc1OCC	human ether-à-go-go-related gene (hERG) potassium channel (human, UniProt Q12809)	8.34
COc1ccccc1CNC(=O)COC(=O)c1ccc(Cl)c(N)c1	human ether-à-go-go-related gene (hERG) potassium channel (human, UniProt Q12809)	21.8
CCOc1cc(CNCCN2CCOCC2)ccc1OCc1ccccc1Cl.Cl	human ether-à-go-go-related gene (hERG) potassium channel (human, UniProt Q12809)	-41.8
Cc1cccc(/C(N)=N/OC(=O)c2ccc(Br)o2)c1	human ether-à-go-go-related gene (hERG) potassium channel (human, UniProt Q12809)	11.7
O=C1N(c2ccc(Cl)c(Cl)c2)CN(Cc2ccccc2)CN1n1cnnc1	human ether-à-go-go-related gene (hERG) potassium channel (human, UniProt Q12809)	-25.9
CCOc1cc(CNCCCN2CCOCC2)cc(Br)c1OCc1ccccc1Cl.Cl	human ether-à-go-go-related gene (hERG) potassium channel (human, UniProt Q12809)	-64.9
O=C(CCS(=O)(=O)c1ccccc1)Nc1ccc(Cl)cn1	human ether-à-go-go-related gene (hERG) potassium channel (human, UniProt Q12809)	-3.42
CCC(CO)NCc1ccc(OCC(=O)Nc2cccc(C(F)(F)F)c2)c(OC)c1 (stereo not shown)	human ether-à-go-go-related gene (hERG) potassium channel (human, UniProt Q12809)	-43.6
CCCCn1c(C)cc(/C=C(\C#N)C(=O)O)c1C	human ether-à-go-go-related gene (hERG) potassium channel (human, UniProt Q12809)	-80
Cc1ccc(-n2c(=O)[nH]c3c(C(N)=O)nc(-c4ccc(C)o4)nc32)cc1	human ether-à-go-go-related gene (hERG) potassium channel (human, UniProt Q12809)	14.7
O=C(CCC1CCCCC1)NCCN1C2=NC[C@@H](Cc3ccccc3)N2C[C@H]1Cc1ccc(O)cc1	human ether-à-go-go-related gene (hERG) potassium channel (human, UniProt Q12809)	-69.3
COc1cc(CNCCCN2CCOCC2)ccc1OCC(=O)NC(C)(C)C.Cl	human ether-à-go-go-related gene (hERG) potassium channel (human, UniProt Q12809)	21
O=C(CCC1CCCCC1)NCCN1C2=NC[C@H](Cc3ccccc3)N2C[C@H]1Cc1ccc(O)cc1	human ether-à-go-go-related gene (hERG) potassium channel (human, UniProt Q12809)	-42
CCN1CCN(C(=O)c2nn(-c3ccccc3)c(=O)c3ccccc23)CC1	human ether-à-go-go-related gene (hERG) potassium channel (human, UniProt Q12809)	-2.92
Cc1nc(CNC(=O)CC2C(=O)NCCN2Cc2cccc(Oc3ccccc3)c2)cs1 (stereo not shown)	human ether-à-go-go-related gene (hERG) potassium channel (human, UniProt Q12809)	10.4
COc1cc(/C=N/N2CCCCC2)cc([N+](=O)[O-])c1O	human ether-à-go-go-related gene (hERG) potassium channel (human, UniProt Q12809)	20.8
Cc1cc(NC(=O)C2CCCN(S(=O)(=O)c3c(C)noc3C)C2)n[nH]1 (stereo not shown)	human ether-à-go-go-related gene (hERG) potassium channel (human, UniProt Q12809)	-16.1
CCOc1ccc(S(=O)(=O)NCCC(=O)OCC(=O)Nc2cc(C)on2)cc1	human ether-à-go-go-related gene (hERG) potassium channel (human, UniProt Q12809)	-44.1
CCOc1cc(NC(=O)CC(C)C)c(OCC)cc1NC(=O)CCn1nnc2ccccc21	human ether-à-go-go-related gene (hERG) potassium channel (human, UniProt Q12809)	10.1
C/C(=C\C(=S)Nc1ccccc1)Nc1ccccc1	human ether-à-go-go-related gene (hERG) potassium channel (human, UniProt Q12809)	22.4
CC(CN1CCCCC1)OC(=O)c1ccc(Cl)cc1.Cl (stereo not shown)	human ether-à-go-go-related gene (hERG) potassium channel (human, UniProt Q12809)	-36.4
Nc1ccccc1SCc1ccccc1	human ether-à-go-go-related gene (hERG) potassium channel (human, UniProt Q12809)	-2.24
O=C1CCC(C(=O)N(CCO)Cc2ccccc2)CN1CC1CCCCC1 (stereo not shown)	human ether-à-go-go-related gene (hERG) potassium channel (human, UniProt Q12809)	11.7
CCOc1cc(CNC(C)(C)C)ccc1OCC(=O)Nc1cccc(C(F)(F)F)c1.Cl	human ether-à-go-go-related gene (hERG) potassium channel (human, UniProt Q12809)	-13.7
COc1cc(CNCCCN2CCOCC2)ccc1OCC(=O)Nc1cccc(C(F)(F)F)c1.Cl	human ether-à-go-go-related gene (hERG) potassium channel (human, UniProt Q12809)	-56.6
COc1ccc(-c2csc(N(CCCN(C)C)C(=O)c3ccccc3F)n2)cc1.Cl	human ether-à-go-go-related gene (hERG) potassium channel (human, UniProt Q12809)	-35.3
CCOc1cc(CNCCO)cc(Br)c1OCc1ccccc1Cl.Cl	human ether-à-go-go-related gene (hERG) potassium channel (human, UniProt Q12809)	12.5
COc1ccc(C[C@H]2CN3C(=NC[C@@H]3Cc3ccccc3)N2CCNC(=O)CCC2CCCCC2)cc1	human ether-à-go-go-related gene (hERG) potassium channel (human, UniProt Q12809)	-73.7
Cl.NCCCNc1ccc([N+](=O)[O-])cc1C(F)(F)F	human ether-à-go-go-related gene (hERG) potassium channel (human, UniProt Q12809)	-15
CCn1nc(C(=O)N2CCc3ccccc3C2)c2ccccc2c1=O	human ether-à-go-go-related gene (hERG) potassium channel (human, UniProt Q12809)	-13.6
Cc1cc(/C=C(\C#N)C(=O)O)c(C)n1CCC(C)C	human ether-à-go-go-related gene (hERG) potassium channel (human, UniProt Q12809)	10.5
c1ccc2[nH]c(SCc3cscn3)nc2c1	human ether-à-go-go-related gene (hERG) potassium channel (human, UniProt Q12809)	2.76
COc1ccc(C[C@H]2CN3C(=NC[C@H]3Cc3ccccc3)N2CCNC(=O)CCC2CCCCC2)cc1	human ether-à-go-go-related gene (hERG) potassium channel (human, UniProt Q12809)	-71.9
Nn1c(SCC(=O)N2CCCc3ccccc32)nnc1-c1ccccc1	human ether-à-go-go-related gene (hERG) potassium channel (human, UniProt Q12809)	2.21
CCCn1c(C)cc(/C=C(\C#N)C(=O)O)c1C	human ether-à-go-go-related gene (hERG) potassium channel (human, UniProt Q12809)	10.4
